assay: in vitro; conditions: human, hela cells, % viability
A collection of compounds and their measured viability at 28.5 h, 10 µM
Form entry: value (%) — number only.

Quick one: viability at 28.5 h, 10 µM of `O=C(c1ccccc1)c1ccc(NC(=O)c2ccccc2F)c(NC(=O)c2ccccc2F)c1` ? 93.2

What value of viability at 28.5 h, 10 µM has been reported for the following compound? `CCOC(=O)N1CCN(C(=O)c2ccc(CS(=O)(=O)c3ccc(C)cc3)cc2)CC1` 88.3

I have this compound here, `Cc1noc(C)c1S(=O)(=O)Nc1ccc2[nH]ncc2c1` , and I need its recorded viability at 28.5 h, 10 µM. 87.8

Value lookup for viability at 28.5 h, 10 µM; key = `O=[N+]([O-])c1ccccc1S(=O)(=O)Nc1cc(C(F)(F)F)ccc1Cl` 93.3

Consider the compound `Cn1c(=O)c2[nH]c(N3CCCCC3)nc2n(C)c1=O` and give its measured viability at 28.5 h, 10 µM. 86.1

New cases:
Suppose we examine the compound O=C1CCCCCC1C(Nc1ccc2ccccc2c1)c1cccnc1 (stereo not drawn) ; what viability at 28.5 h, 10 µM value has been reported? 86.4

So what does the record say about viability at 28.5 h, 10 µM for CN(C(=O)CN)c1nc2c(s1)CC(c1ccccc1)CC2 (stereo not drawn) [CBK304298C] ? 74.1

GET /values?readout=viability at 28.5 h, 10 µM&item= `Cc1nonc1NC(=O)CN1CCCCC1` 110

Which viability at 28.5 h, 10 µM is listed for `CS(=O)(=O)c1ccccc1C(=O)n1ccn(-c2cccc(C(F)(F)F)c2)c1=O` ? 91.1
